System: UACC-62
experiment: NCI tumour cell line growth inhibition, 48 h
Active and inactive are the calls of the source. No stated cut-off is given here; in the data, active = GI50 up to about 1.1 µM and inactive = higher.
parameter: GI50

// worked examples, GI50 included
| compound | observed |
| --- | --- |
| Cc1cc(C)nc(NS(=O)(=O)c2ccc(Nc3c4ccccc4nc4c(C(=O)N5CCN(CCO)CC5)ccc(Cl)c34)cc2)n1 | 83 µM (inactive) |
| O=C1CCC2(c3ccccc3)Nc3ncccc3N12 (stereo unspecified) | > 100 µM (inactive) |
| N#CSCc1cccc(Nc2cc(=O)[nH]c(=O)[nH]2)c1 | 26.7 µM (inactive) |
| CC1=C(C(=O)Nc2ccccc2)C(c2ccccc2Cl)C(C(=O)Nc2ccccc2)=C(C)N1 | 13.6 µM (inactive) |
| CC1(C)N=C(N)N=C(N)N1c1cccc(OCc2cccc([N+](=O)[O-])c2)c1 | 6.11 µM (inactive) |
| Sc1nnc(Cc2ccc(Cl)cc2)[nH]1 | 66.7 µM (inactive) |
| Cc1nc(N)c(-c2ccccc2)s1 | > 72.1 µM (inactive) |
| CCN(CC)CC(O)CNc1ccc(NCC(O)CCl)c2c1C(=O)c1ccccc1C2=O (stereo unspecified) | 14.4 µM (inactive) |
| Cc1cc(-c2nc3ccccc3s2)ccc1NC(=O)[C@H](C)N | 14.8 µM (inactive) |
| CC1=NN2C(c3ccc([N+](=O)[O-])cc3)=CSC2=NC(C)(C)C1 | > 100 µM (inactive) |

// switching to the query compound
Notebook: pull reported GI50 for UACC-62, entry C=C1C(=O)C2(C)OC2(C)C1C(=O)O (stereo unspecified)
> 100 µM (inactive)
